- tested-target: E. coli SSB-Cy5-dT15 complex (Escherichia coli)
- Construct: purchased Promega
- Sequence (P0AGE0 2-178, one chain of several): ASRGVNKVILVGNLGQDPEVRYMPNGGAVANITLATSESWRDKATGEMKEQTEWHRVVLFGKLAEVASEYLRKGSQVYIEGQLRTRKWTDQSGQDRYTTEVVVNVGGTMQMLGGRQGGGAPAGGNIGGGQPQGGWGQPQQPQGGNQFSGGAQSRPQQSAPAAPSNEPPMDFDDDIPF
- assay-name: Escherichia coli SSB Cy5-dT15 binding assay (fluorescence polarization)
- measurement-context: read-out: SSB EC50
Measured EC50, listed per entry for reference.

Some solved cases for reference:
Cc1ccc2nc(-c3ccc4nc(-c5ccc(NC(=O)c6cccc(C(F)(F)F)c6)cc5)sc4c3)sc2c1S(=O)(=O)O [Compound 20] :: > 100 µM
Cc1ccc2nc(-c3ccc(NC(=O)c4ccc(NS(=O)(=O)c5ccccc5)cc4)cc3)sc2c1S(=O)(=O)O :: > 100 µM

Turning now to a further molecule:
Need EC50 of Cc1ccc2nc(-c3ccc4nc(-c5ccc(NC(=O)c6cccnc6)cc5)sc4c3)sc2c1S(=O)(=O)O [Compound 31] , thanks.
> 100 µM

====

Measured Int.* (Ratio) (Interference), listed per entry for reference.
- tested-target: HCV NS3 helicase NS3h_1b(con1) (Hepatitis C virus genotype 1b)
- Construct: truncated C-terminally His-tagged NS3 proteins lacking the N-terminal protease, called NS3h; His-tag (C); made in house
- assay-name: MBHA screen of NCI mechanistic set library at 20 μM (percent inhibition, compound interference)
- Format: biochemical
- measurement-context: compounds at 20 μM, MBHA with DNA substrate; assay interference calculated with Equation 2

CN(C)[C@H]1CCC2[C@@H]3CCC4C[C@@H](NC(=O)NC(Cc5ccccc5)c5nccs5)CC[C@]4(C)C3CC[C@@]21C (stereo partly shown) :: 0.89 Ratio
COc1cc2c(cc1Oc1ccc(OC)c3c1CC1c4c(cc(OC)c(OC)c4-3)CCN1C)CC1c3c(cc(OC)c(OC)c3-2)CCN1C (stereo not shown) :: 0.88 Ratio
O=[N+]([O-])c1cccc2c(N=Nc3ccc4ccccc4c3O)c(O)cc(S(=O)(=O)[O-])c12.[Na+] :: 0.90 Ratio

Turning now to a further molecule:
Need Int.* (Ratio) (Interference) of CCCC/C=C/C=C/C=C/CCCCCCCC(=O)OCC(COC(=O)CCCCCCC/C=C/C1C=CC(CCCC)C(C(=O)O)C1C(=O)O)OC(=O)CCCCCCC/C=C/C=C/C=C/CCCC.OCCNCO (stereo not shown) , thanks.
0.88 Ratio

====

- tested-target: HCV NS3 helicase NS3h_1b(con1) (Hepatitis C virus genotype 1b, UniProt Q9WMX2)
- Construct: truncated C-terminally His-tagged NS3 proteins lacking the N-terminal protease, called NS3h; His-tag (C); made in house
- Sequence (Q9WMX2 1192-1657): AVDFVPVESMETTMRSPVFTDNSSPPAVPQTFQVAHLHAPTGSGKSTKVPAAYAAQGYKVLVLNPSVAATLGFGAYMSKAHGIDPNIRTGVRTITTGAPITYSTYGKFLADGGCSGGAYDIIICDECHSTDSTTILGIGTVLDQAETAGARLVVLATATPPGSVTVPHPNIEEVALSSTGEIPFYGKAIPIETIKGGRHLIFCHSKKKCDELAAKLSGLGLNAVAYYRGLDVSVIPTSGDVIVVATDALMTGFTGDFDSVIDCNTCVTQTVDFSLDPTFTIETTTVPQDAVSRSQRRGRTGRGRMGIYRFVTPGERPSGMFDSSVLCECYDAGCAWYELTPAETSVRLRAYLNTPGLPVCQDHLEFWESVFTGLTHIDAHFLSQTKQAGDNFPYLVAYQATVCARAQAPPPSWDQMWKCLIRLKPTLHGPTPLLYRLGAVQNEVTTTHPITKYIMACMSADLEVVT
- assay-name: MBHA screen of NCI mechanistic set library at 20 μM (percent inhibition, compound interference)
- Type: biochemical
- measurement-context: compounds at 20 μM, MBHA with DNA substrate; calculated from Equation 1
Measured Inh. (%) (Inhibition), listed per entry for reference.
Give the value, in units of %, as a plain number.

CN(C)CCCCN1CCc2c(n(C)c3ccccc23)C1=O :: −18.7
Cc1nc(N)nc(N)c1-c1ccc(Cl)c(Cl)c1 :: 20.2

Need Inh. (%) (Inhibition) of `COc1c2c(c(OC)c3c1c(=O)c1ccccc1n3C)OCO2` , thanks.
−7.4

Need Inh. (%) (Inhibition) of `O=C(NCCCCCCCCNC(=O)c1cccc2ccccc12)c1cccc2ccccc12` , thanks.
5.9

Need Inh. (%) (Inhibition) of `O=S(=O)(O)c1cc(N=Nc2cc(S(=O)(=O)O)c3cccnc3c2O)ccc1/C=C/c1ccc(N=Nc2cc(S(=O)(=O)O)c3cccnc3c2O)cc1S(=O)(=O)O` , thanks.
56.2

Need Inh. (%) (Inhibition) of `COc1cc(/C=C/C(=O)CC(=O)/C=C/c2ccc(O)c(OC)c2)ccc1O` , thanks.
15.0

Need Inh. (%) (Inhibition) of `Cc1nc(Cl)c(C)c(Cl)n1` , thanks.
1.1

Need Inh. (%) (Inhibition) of `COC(=O)C1=C(C(=O)OC)SC2(S1)C(C(=O)OC)=C(C(=O)OC)Sc1c2ssc1=O` , thanks.
−14.4

Need Inh. (%) (Inhibition) of `CCCCOc1ccc(NC(N)=Nc2ccc(Cl)cc2)cc1` , thanks.
4.7

Need Inh. (%) (Inhibition) of CN1c2c(nc(N)[nH]c2=O)NCC1CCNc1ccc(C(=O)N[C@@H](CCC(=O)[O-])C(=O)[O-])cc1.[Na+].[Na+] (stereo partly drawn) , thanks.
−13.8

Need Inh. (%) (Inhibition) of N#CC(c1ccccc1)N(CCCCCCN(C(=O)c1ccccc1)C(C#N)c1ccccc1)C(=O)c1ccccc1 (stereo not drawn) , thanks.
20.4

Need Inh. (%) (Inhibition) of CN(Cc1cnc2nc(N)nc(N)c2n1)c1ccc(C(=O)NC(CCC(=O)O)C(=O)O)c2ccccc12 (stereo not drawn) , thanks.
−13.1
